Test system: SW480, human primary colon cancer cell line
assay protocol: MTT assay, cytotoxicity in SW480
Type: cell-based
run conditions: Homo sapiens, SW480; MTT, 72 h, mean ± SD
Entries and their IC50
assay metric: IC50 (µM)

# compound, measured result
records = [
    ("O=c1[nH]c(=O)n(CCCCCCBr)cc1F", 103),
    ("CC[C@@H](C(=O)[C@@H](C)[C@@H](O)[C@H](C)CCc1ccc(C)c(O)c1C(=O)OCc1cc(=O)c(O)co1)[C@H]1O[C@](CC)([C@H]2CC[C@](O)(CC)[C@H](C)O2)C[C@@H]1C [Compound 7, LAS–Kojic Acid Conjugate]", 7.8),
    ("CC[C@@H](C(=O)[C@@H](C)[C@@H](O)[C@H](C)CCc1ccc(C)c(O)c1C(=O)OC[C@H]1O[C@@H](n2ccc(N)nc2=O)C(F)(F)[C@@H]1O)[C@H]1O[C@](CC)([C@H]2CC[C@](O)(CC)[C@H](C)O2)C[C@@H]1C [Compound 12, LAS–Gemcitabine Conjugate]", 12),
    ("C=C(C)[C@@H]1CC[C@]2(C(=O)OCCCCCCOC(=O)c3c(CC[C@@H](C)[C@H](O)[C@H](C)C(=O)[C@H](CC)[C@H]4O[C@](CC)([C@H]5CC[C@](O)(CC)[C@H](C)O5)C[C@@H]4C)ccc(C)c3O)CC[C@]3(C)[C@H](CC[C@@H]4[C@@]5(C)CC[C@H](O)C(C)(C)[C@@H]5CC[C@]43C)[C@@H]12 [Compound 6, LAS–Betulinic Acid Conjugate]", 320),
]

====

Test system: SW620, human metastatic colon cancer cell line
assay protocol: MTT assay, cytotoxicity in SW620
Assay type: cell-based
run conditions: SI = IC50 HaCaT / IC50 SW620
Listed here: items and their measured SW620 SI (selectivity index).
assay metric: SW620 SI (selectivity index)

# molecule, measured result
measured = [
    ("CC[C@@H](C(=O)[C@@H](C)[C@@H](O)[C@H](C)CCc1ccc(C)c(O)c1C(=O)OCCCCCCn1cc(F)c(=O)[nH]c1=O)[C@H]1O[C@](CC)([C@H]2CC[C@](O)(CC)[C@H](C)O2)C[C@@H]1C [Compound 9, LAS–5-Fluorouracil Conjugate]", 0.8),
    ("O=c1cc(CO)occ1O [KOJ, kojic acid, reference compound]", 2.4),
    ("Nc1ccn([C@@H]2O[C@H](CO)[C@@H](O)C2(F)F)c(=O)n1 [GEM, gemcitabine, reference compound]", 0.4),
    ("O=C(CCCCCBr)[c-]1cccc1.[Fe+2].c1cc[cH-]c1 [FER, (6-bromo-1-oxohexyl)ferrocene, reference compound]", 2.1),
    ("BrCCC[P+](c1ccccc1)(c1ccccc1)c1ccccc1.[Br-] [TPP, reference compound]", 0.7),
    ("O=c1[nH]cc(F)c(=O)[nH]1 [5FU, 5-fluorouracil, reference compound]", 1.3),
    ("CC[C@@H](C(=O)[C@@H](C)[C@@H](O)[C@H](C)CCc1ccc(C)c(O)c1C(=O)OCCC[P+](c1ccccc1)(c1ccccc1)c1ccccc1)[C@H]1O[C@](CC)([C@H]2CC[C@](O)(CC)[C@H](C)O2)C[C@@H]1C [Compound 13, LAS–TPP Conjugate]", 1.4),
    ("C=C(C)[C@@H]1CC[C@]2(C(=O)O)CC[C@]3(C)[C@H](CC[C@@H]4[C@@]5(C)CC[C@H](O)C(C)(C)[C@@H]5CC[C@]43C)[C@@H]12 [BET, betulinic acid, reference compound]", 1.7),
    ("O=c1[nH]c(=O)n(CCCCBr)cc1F", 2.4),
    ("CC[C@@H](C(=O)[C@@H](C)[C@@H](O)[C@H](C)CCc1ccc(C)c(O)c1C(=O)OC[C@H]1O[C@@H](n2ccc(N)nc2=O)C(F)(F)[C@@H]1O)[C@H]1O[C@](CC)([C@H]2CC[C@](O)(CC)[C@H](C)O2)C[C@@H]1C [Compound 12, LAS–Gemcitabine Conjugate]", 3.9),
    ("O=c1cc(CCl)occ1O", 2.0),
    ("O=c1[nH]c(=O)n([C@H]2C[C@H](O)[C@@H](CO)O2)cc1F [FLO, floxuridine, reference compound]", 4.3),
]

====

System: SW480, human primary colon cancer cell line
assay protocol: MTT assay, cytotoxicity in SW480
Format: cell-based
run conditions: Homo sapiens, SW480; MTT, 72 h, mean ± SD
Catalogue of IC50 values
assay metric: IC50 (µM)

# molecule, assay metric, measured result
records = [
    ("CC[C@@H](C(=O)[C@@H](C)[C@@H](O)[C@H](C)CCc1ccc(C)c(O)c1C(=O)OCCOCCn1cc(F)c(=O)[nH]c1=O)[C@H]1O[C@](CC)([C@H]2CC[C@](O)(CC)[C@H](C)O2)C[C@@H]1C [Compound 10, LAS–5-Fluorouracil Conjugate]", "IC50", 22),
    ("CC[C@@H](C(=O)[C@@H](C)[C@@H](O)[C@H](C)CCc1ccc(C)c(O)c1C(=O)OCCCCCCBr)[C@H]1O[C@](CC)([C@H]2CC[C@](O)(CC)[C@H](C)O2)C[C@@H]1C [Compound 5]", "IC50", 42),
    ("CC[C@@H](C(=O)[C@@H](C)[C@@H](O)[C@H](C)CCc1ccc(C)c(O)c1C(=O)OCCC[P+](c1ccccc1)(c1ccccc1)c1ccccc1)[C@H]1O[C@](CC)([C@H]2CC[C@](O)(CC)[C@H](C)O2)C[C@@H]1C [Compound 13, LAS–TPP Conjugate]", "IC50", 1.4),
    ("O=c1cc(CO)occ1O [KOJ, kojic acid, reference compound]", "IC50", 119),
    ("CC[C@@H](C(=O)[C@@H](C)[C@@H](O)[C@H](C)CCc1ccc(C)c(O)c1C(=O)OCCCCCCn1cc(F)c(=O)[nH]c1=O)[C@H]1O[C@](CC)([C@H]2CC[C@](O)(CC)[C@H](C)O2)C[C@@H]1C [Compound 9, LAS–5-Fluorouracil Conjugate]", "IC50", 66),
]

====

Tested on: PC3 cells
assay protocol: Annexin V-FITC/PI binding assay (flow cytometry) in PC3
Type: cell-based, human
run conditions: IC50 concentration, 72 h
Method: The SW480, SW620, PC3, and HaCaT cells were cultured and harvested under the conditions mentioned in the Section 4.5 and seeded in 12-well plates (1 × 10^5 cells per well). […] The apoptotic effect was performed using the Annexin V-FITC/propidium iodide (PI) apoptosis assay kit (Becton Dickinson, Pharmingen), according to the manufacturer’s instructions, and analyzed by flow cytometry (Becton Dickinson). […]
Consider the following compounds and their measured percentage of necrotic PC3 cells readings.
assay metric: percentage of necrotic PC3 cells (%)

# compound, assay metric, measured result
measured = [
    ("CC[C@@H](C(=O)[C@@H](C)[C@@H](O)[C@H](C)CCc1ccc(C)c(O)c1C(=O)OCc1cc(=O)c(O)co1)[C@H]1O[C@](CC)([C@H]2CC[C@](O)(CC)[C@H](C)O2)C[C@@H]1C [Compound 7, LAS–Kojic Acid Conjugate]", "percentage of necrotic PC3 cells", 26.00),
    ("CC[C@@H](C(=O)[C@@H](C)[C@@H](O)[C@H](C)CCc1ccc(C)c(O)c1C(=O)OC[C@H]1O[C@@H](n2ccc(N)nc2=O)C(F)(F)[C@@H]1O)[C@H]1O[C@](CC)([C@H]2CC[C@](O)(CC)[C@H](C)O2)C[C@@H]1C [Compound 12, LAS–Gemcitabine Conjugate]", "percentage of necrotic PC3 cells", 40.31),
    ("CC[C@@H](C(=O)[C@@H](C)[C@@H](O)[C@H](C)CCc1ccc(C)c(O)c1C(=O)OCCCCn1cc(F)c(=O)[nH]c1=O)[C@H]1O[C@](CC)([C@H]2CC[C@](O)(CC)[C@H](C)O2)C[C@@H]1C [Compound 8, LAS–5-Fluorouracil Conjugate]", "percentage of necrotic PC3 cells", 34.88),
    ("CC[C@@H](C(=O)[C@@H](C)[C@@H](O)[C@H](C)CCc1ccc(C)c(O)c1C(=O)OCCC[P+](c1ccccc1)(c1ccccc1)c1ccccc1)[C@H]1O[C@](CC)([C@H]2CC[C@](O)(CC)[C@H](C)O2)C[C@@H]1C [Compound 13, LAS–TPP Conjugate]", "percentage of necrotic PC3 cells", 56.81),
]

====

Each item that follows carries a reported IC50.
System: SW480, human primary colon cancer cell line
assay protocol: MTT assay, cytotoxicity in SW480
Type: cell-based
run conditions: Homo sapiens, SW480; MTT, 72 h, mean ± SD
assay metric: IC50 (µM)

# compound, measured result
data = [
    ("COc1cccc2c1C(=O)c1c(O)c3c(c(O)c1C2=O)C[C@@](O)(C(=O)CO)C[C@@H]3O[C@H]1C[C@H](N)[C@H](O)[C@H](C)O1 [DOX, doxorubicin, reference compound]", 0.75),
    ("O=c1[nH]c(=O)n([C@H]2C[C@H](O)[C@@H](CO)O2)cc1F [FLO, floxuridine, reference compound]", 16),
    ("BrCCC[P+](c1ccccc1)(c1ccccc1)c1ccccc1.[Br-] [TPP, reference compound]", 46),
    ("O=c1[nH]c(=O)n(CCCCBr)cc1F", 36),
]
